Assay: gradient 5% acetonitrile 3 min, to 50% in 2 min, to 85% in 15 min, held 3 min, 100 µL/min
Conditions: column: Zorbax Extend-C18 2.1 x 50 mm; eluents: water / acetonitrile, 0.1% formic acid
OBSERVABLE: RP-LC retention time (s)
Output spec: scalar in s, unitless text.

// RP-LC retention time lookup, key: Cc1cc(C)cc(C(=O)NC(c2ccccc2)c2nnc(N3CCCC3)o2)c1 (stereo not given) 868

// RP-LC retention time lookup, key: `O=C(Nc1c(-c2ccccc2)nc2ccccn12)c1ccc([N+](=O)[O-])cc1` 654

// RP-LC retention time lookup, key: `COCCN(C)C(=O)c1cc2c(s1)N(C)CCCC2` 770

// RP-LC retention time lookup, key: COc1ccc(NC(=O)N2CC3CCCN3c3ccccc32)c(OC)c1 (stereo not given) 1090

// RP-LC retention time lookup, key: `COc1ccc(NC(=O)C2CCN(S(=O)(=O)c3ccc4c(c3)sc(=O)n4C)CC2)cc1Cl` 880

// RP-LC retention time lookup, key: CN1C(=O)CC2(C)C1=CCc1scnc12 (stereo not given) 636

// RP-LC retention time lookup, key: CCOC(=O)C1CCCN(C(=O)CCCn2c(=O)c3cccn3c3ccc(Br)cc32)C1 (stereo not given) 971

// RP-LC retention time lookup, key: `Cc1ccccc1CN1C(=O)N(c2ccc(F)cc2)c2ncccc2S1(=O)=O` 1100

// RP-LC retention time lookup, key: CS(=O)(=O)N1CCC(C(=O)NC2CCCCCC2)Oc2ccc(Cl)cc21 (stereo not given) 991

// RP-LC retention time lookup, key: `COc1ccc(-c2nnc(-c3ccccc3Cl)o2)cc1S(=O)(=O)N1CCOCC1` 871
